# reported ED50; entries follow
molecular target: Tubulin (Homo sapiens) (UniProt P68371+Q9H4B7+P0DPH7+P68366+Q13509+Q71U36+P04350+Q3ZCM7+P07437+P68363+Q9BQE3+Q6PEY2+Q13885+Q9BVA1+Q9BUF5); experiment: Induction of GTP-tubulin polymerization; format: protein-complex assay
Quick reminder: number only, in nM, skip the unit.

C=CCOc1cccc([C@H](NC(=O)c2ccccc2)[C@@H](O)C(=O)O[C@H]2C[C@@]3(O)[C@@H](OC(=O)c4ccccc4)[C@@H]4[C@]5(OC(=O)C=C)CO[C@@H]5C[C@H](O)[C@@]4(C)C(=O)[C@H](OC(C)=O)C(=C2C)C3(C)C)c1 | 1000

Now turn to the next compound.
What measured ED50 goes with CC(=O)O[C@H]1C(=O)[C@@]2(C)[C@@H]3[C@H](OC(=O)c4ccccc4)[C@]4(O)C[C@H](OC(=O)[C@H](O)[C@@H](NC(=O)OC(C)(C)C)c5ccccc5CCCC(=O)O[C@]35CO[C@@H]5C[C@@H]2O)C(C)=C1C4(C)C ? 180

* * *

# reported ED50; entries follow
molecular target: Tubulin (Homo sapiens) (UniProt P68371+Q9H4B7+P0DPH7+P68366+Q13509+Q71U36+P04350+Q3ZCM7+P07437+P68363+Q9BQE3+Q6PEY2+Q13885+Q9BVA1+Q9BUF5); assay: Induction of GTP-tubulin polymerization; assay type: protein-complex assay
Quick reminder: number only, in nM, skip the unit.

CC(=O)O[C@H]1C(=O)[C@@]2(C)[C@@H]3[C@H](OC(=O)c4ccccc4)[C@]4(O)C[C@H](OC(=O)[C@H](O)[C@@H](NC(=O)c5ccccc5)c5ccccc5OCCCC(=O)O[C@]35CO[C@@H]5C[C@@H]2O)C(C)=C1C4(C)C | 830
COc1cccc(C(=O)O[C@H]2[C@@H]3[C@]45CO[C@@H]4C[C@H](O)[C@@]3(C)C(=O)[C@H](OC(C)=O)C3=C(C)[C@H](C[C@]2(O)C3(C)C)OC(=O)[C@H](O)[C@@H](NC(=O)OC(C)(C)C)c2ccccc2CCCC(=O)O5)c1 | 220
CC(=O)O[C@H]1C(=O)[C@@]2(C)[C@@H]3[C@H](OC(=O)c4ccccc4)[C@]4(O)C[C@H](OC(=O)[C@H](O)[C@@H](NC(=O)c5ccccc5)c5ccccc5OCCCCCC(=O)O[C@]35CO[C@@H]5C[C@@H]2O)C(C)=C1C4(C)C | 760

Now turn to the next compound.
What measured ED50 goes with CC(=O)O[C@H]1C(=O)[C@]2(C)C(O)C[C@H]3OC[C@]34OC(=O)/C=C\Cc3ccccc3[C@H](NC(=O)c3ccccc3)[C@@H](O)C(=O)O[C@H]3C[C@@](O)([C@@H](OC(=O)c5ccccc5)[C@H]42)C(C)(C)C1=C3C (some centres undefined) ? 300
